TGI overview
test system: DMS 273 small cell lung; assay: NCI tumour cell line growth inhibition, 48 h

Sample answers from the record:
[
  {
    "compound": "COc1ccc(-c2cc(=O)c3ccccc3[nH]2)c(OC)c1",
    "reported": "> 100 µM"
  },
  {
    "compound": "CCOC(=O)C(Cc1cn(S(=O)(=O)c2ccccc2)c2ccccc12)(NC(C)=O)C(=O)OCC",
    "reported": "> 100 µM"
  },
  {
    "compound": "COC1=CC2(C=CC1=O)c1cc(OC)c(OC)cc1CCN2C(=O)c1ccccc1 (stereo not given)",
    "reported": "> 100 µM"
  },
  {
    "compound": "COc1cc2c(c(OC)c1)C1(CC(CC#N)C2)SCCS1 (stereo not given)",
    "reported": "> 100 µM"
  }
]

Challenge: Field request: TGI | item: C=C(C)C(=O)OC1CCC2(C)C(CCC3C2CCC2(C)C(c4ccc(=O)oc4)CC4OC432)C1 (stereo not given)
Response given: 20.5 µM

---

GI50 overview
tested on: SK-MEL-5 melanoma; test: NCI tumour cell line growth inhibition, 48 h

[
  {
    "compound": "Cc1ccc(NC(=O)c2sc3nc(C)c(C(O)c4ccccc4)cc3c2N)cc1 (stereo not drawn)",
    "GI50": "417 nM"
  },
  {
    "compound": "O=C1NN(C2=NNC3(C(=O)N2)c2ccccc2-c2ccccc23)C(c2ccccc2)=N/C1=C/c1ccc(O)cc1",
    "GI50": "39.2 µg/mL"
  },
  {
    "compound": "COc1ccc(-n2cc(-c3cc(OC)c(OC)c(OC)c3)[nH]c2=O)cc1Cl",
    "GI50": "> 100000 nM"
  },
  {
    "compound": "CC1(C)N=C(N)N=C(N)N1c1ccc(OCc2ccc(S(=O)(=O)F)c(Cl)c2)c(Cl)c1",
    "GI50": "1030 nM"
  },
  {
    "compound": "COc1cc2c(c(OC)c1OC)C(=O)[C@@H]1c3ccc([N+](=O)[O-])cc3C(=O)N(CCCBr)[C@H]21",
    "GI50": "11000 nM"
  }
]

Challenge: Field request: GI50 | item: Cc1ccc(NC(=O)NCCCOc2ccc(N3C(N)=NC(N)=NC3(C)C)cc2Cl)cc1S(=O)(=O)F
Response given: 1880 nM

Challenge: Field request: GI50 | item: C=C(C)C1CCC2(C(=O)O)CCC3(C)C(CCC4C5(C)CCC(OC(=O)NCc6ccccc6)C(C)(C)C5CCC43C)C12 (stereo not drawn)
Response given: 4820 nM

---

TGI overview
tested on: KM12 colon; assay: NCI tumour cell line growth inhibition, 48 h
Where a SMILES comes first, the peptide text is derived from it. The star is where a group is joined. Cbz = O=C(OCc1ccccc1)*; Boc = CC(C)(C)OC(=O)*; tBu = CC(C)(C)*

Sample answers from the record:
[
  {
    "compound": "CC(OC(C)(C)C)C(NC(=O)C(CCCCNC(=O)OC(C)(C)C)NC(=O)C(Cc1c[nH]c2ccccc12)NC(=O)C(Cc1ccccc1)NC(=O)OCc1ccccc1)C(=O)NC(Cc1ccccc1)C(=O)O (stereo not drawn) (Cbz-FWK(Boc)T(tBu)F-OH; configuration not given here)",
    "reported": "> 100 µM"
  },
  {
    "compound": "CN(/N=C/c1ccc(OCc2cccc(COc3ccc(C=O)cc3)n2)cc1)c1cnn(-c2ccc(Cl)cc2Cl)c(=O)c1Cl",
    "reported": "> 100 µM"
  }
]

Challenge: Field request: TGI | item: CCCCCCC(=O)C/C(=N/NC(N)=S)C(=O)NC1C2CC3CC(C2)CC1C3 (stereo not drawn)
Response given: > 100 µM

---

system: DU-145 prostate; assay: NCI tumour cell line growth inhibition, 48 h
TGI overview

[
  {
    "compound": "O=C(O)Cc1cc(O)c(CC(=O)O)cc1O",
    "system.tested": "DU-145 prostate",
    "TGI": "> 100 µM"
  },
  {
    "compound": "CC(=O)OC1(C)C=CC(=O)C=C1",
    "system.tested": "DU-145 prostate",
    "TGI": "> 100 µM"
  },
  {
    "compound": "COC1(OC)CC(CO)(CNc2nc(N)nc(Cl)c2/C=N\\O)C1",
    "system.tested": "DU-145 prostate",
    "TGI": "> 100 µM"
  },
  {
    "compound": "O=C1NN(C2=NNC3(C(=O)N2)c2ccccc2-c2ccccc23)C(c2ccccc2)=N/C1=C/c1ccc(O)cc1",
    "system.tested": "DU-145 prostate",
    "TGI": "> 150 µg/mL"
  },
  {
    "compound": "CC1ON2CCCC2[C@H]1C(=O)N1C2CC3CCC2(CS1(=O)=O)C3(C)C (some centres not stated)",
    "system.tested": "DU-145 prostate",
    "TGI": "> 100 µM"
  }
]

Could you now consider this next compound?
Challenge: Field request: TGI | item: O=C1CCCC2(c3ccccc3)Nc3ccccc3N12 (configuration not stated)
Response given: > 100 µM

---

TGI overview
system: HCT-116 colon; assay: NCI tumour cell line growth inhibition, 48 h

[
  {
    "molecule": "COC(=O)C(NC(=O)c1ccccc1)c1ccco1 (stereo unspecified)",
    "TGI": "> 100 µM"
  },
  {
    "molecule": "COc1ccc(-c2cc(=O)c3ccccc3[nH]2)c(OC)c1",
    "TGI": "> 100 µM"
  },
  {
    "molecule": "Cc1ccc2c3c(c(=O)[nH]c2c1)C1(C(C#N)=C(N)O3)c2cc(Br)ccc2-c2ccc(Br)cc21",
    "TGI": "4.35 µM"
  }
]

Challenge: Field request: TGI | item: COC(=O)c1c(C)[nH]c(/C=C2\N=C(c3ccc[nH]3)C=C2OC)c1C
Response given: 1.2 µM

Challenge: Field request: TGI | item: CC(C)=CC(=O)C[C@H]1C(=O)O[C@@H]2C[C@H]3C(C)=CC(=O)[C@@H](O)[C@]3(C)[C@H]3[C@@]4(O)OC[C@]32[C@@H]1[C@@H](C)[C@H]4O
Response given: 0.114 µM

Challenge: Field request: TGI | item: CCOC(=O)CN=C1NNS(=O)(=O)c2ccccc21
Response given: > 100 µM

Challenge: Field request: TGI | item: CCCCCCC(=O)C/C(=N/NC(N)=S)C(=O)NC1C2CC3CC(C2)CC1C3 (stereo unspecified)
Response given: > 100 µM

Challenge: Field request: TGI | item: COc1cc2c(c(OC)c1OC)-c1c(cc3c(c1OC)OCO3)C1OC2C(C)C1C (stereo unspecified) (tested in a mixture with another compound)
Response given: > 100 µM

Challenge: Field request: TGI | item: COc1cc2c(c(OC)c1OC)C(=O)[C@@H]1c3ccc([N+](=O)[O-])cc3C(=O)N(CCCBr)[C@H]21
Response given: 51 µM

Challenge: Field request: TGI | item: CN1C(=O)c2ccccc2NC(=O)C12O[C@@H]2c1cccc(O)c1 (stereo partly specified)
Response given: > 100 µM

Challenge: Field request: TGI | item: C/C(=N\Nc1ccc(Cl)cn1)c1ccccn1
Response given: > 33.8 µM

Challenge: Field request: TGI | item: CC1ON2CCCC2[C@H]1C(=O)N1C2CC3CCC2(CS1(=O)=O)C3(C)C (stereo partly specified)
Response given: > 100 µM

Challenge: Field request: TGI | item: COC1=CC2(C=CC1=O)c1cc(OC)c(OC)cc1CCN2C(=O)c1ccccc1 (stereo unspecified)
Response given: > 100 µM

Challenge: Field request: TGI | item: Cc1ccc(S(=O)(=O)OC(c2ccc(Cl)cc2Cl)C2OC(=O)c3ccccc32)cc1 (stereo unspecified)
Response given: > 100 µM

---

test system: OVCAR-4 ovarian; assay: NCI tumour cell line growth inhibition, 48 h
value.type: TGI

Sample answers from the record:
[
  {
    "structure": "CCOC(=O)CN=C1NNS(=O)(=O)c2ccccc21",
    "value.type": "TGI",
    "reported": "> 100 µM"
  },
  {
    "structure": "CC1(C)CC(=O)C(/C=N/c2nc(-c3ccccc3)cs2)=C(O)C1",
    "value.type": "TGI",
    "reported": "> 100 µM"
  },
  {
    "structure": "CCCS(=O)(=O)/C(=C(\\c1ccc(Br)cc1)S(=O)(=O)CCC)c1ccc(Br)cc1",
    "value.type": "TGI",
    "reported": "> 10 µM"
  }
]

Could you now consider this next molecule?
Challenge: Field request: TGI | item: O=C1NCCCNCCCNCCCNC(=O)c2cccc1n2
Response given: > 100 µM
